EXPERIMENTAL_PROTOCOL: Pharmacokinetic study in rats at 100 mpk (Experimental Embodiment 4)
Format: in vivo
CONDITION_DESCRIPTION: Sprague-Dawley, rat, plasma, po, 100 mg/kg, male SD rats
ENDPOINT: AUC(0-t) (µM·h)
One number for each entry, in µM·h.

Worked examples, 2 compounds total:
> print(dat)
                                test.smiles  observed
1  CS(=O)(=O)O.Cn1cc(-c2ccn3c(-c4cc(NS(C)(=O)=O)nc(-c5ccc(F)cc5F)c4)cnc3c2)cn1       179
2  Cn1cc(-c2ccn3c(-c4cc(NS(C)(=O)=O)nc(-c5ccc(F)cc5F)c4)cnc3c2)cn1      12.6

// next entry
The reported value for Cl.Cn1cc(-c2ccn3c(-c4cc(NS(C)(=O)=O)nc(-c5ccc(F)cc5F)c4)cnc3c2)cn1 in terms of AUC(0-t) is 32.3

Source: patent US20240409534A1
